# Tested on: neonicotinoid insecticide susceptible strain 4106A
# EXPERIMENT: Leaf disc spray bioassay on chinese cabbage, aphid mortality (Example 1), susceptible strain
# Assay type: in vivo
# EXPERIMENTAL SETUP: susceptible strain 4106A (Rothamsted Research), mixed age aphids, mortality 72 hours after treatment
OBSERVED PROPERTY: LC50 with 95% confidence limit, susceptible strain

| COMPOUND | READOUT VALUE |
| --- | --- |
| CN/C(=N/CC1CCOC1)N[N+](=O)[O-] (stereo not shown) | 9.95 (8.21-12.5) ppm |
| N#C/N=C1\SCCN1Cc1ccc(Cl)nc1 | 0.38 (0.34-0.42) ppm |
| N#CCNC(=O)c1cnccc1C(F)(F)F | 1.65 (1.3-2.09) ppm |
| CN1COCN(Cc2cnc(Cl)s2)/C1=N/[N+](=O)[O-] | 0.35 (0.3-0.41) ppm |
| C/C(=N\C#N)N(C)Cc1ccc(Cl)nc1 | 0.55 (0.51-0.59) ppm |
| CN/C(=N\[N+](=O)[O-])NCc1cnc(Cl)s1 | 0.33 (0.28-0.38) ppm |
| CCN(Cc1ccc(Cl)nc1)/C(=C/[N+](=O)[O-])NC | 1.26 (1.03-1.61) ppm |
